Measured kon, listed per entry.
SUBJECT OF TEST: T1, soluble FGFR1c receptor protein (human, UniProt P11362 141-376)
T1 sequence: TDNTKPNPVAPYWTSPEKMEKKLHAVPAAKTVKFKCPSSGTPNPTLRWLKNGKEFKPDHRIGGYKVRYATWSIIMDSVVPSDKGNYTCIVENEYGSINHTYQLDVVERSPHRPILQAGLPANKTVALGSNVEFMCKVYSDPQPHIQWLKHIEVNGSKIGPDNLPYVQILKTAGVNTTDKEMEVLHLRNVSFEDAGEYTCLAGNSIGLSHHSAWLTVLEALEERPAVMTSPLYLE
ASSAY OVERVIEW: BLI Octet RED96, antibody on anti-hIgG Fc tip
Express your answer in M⁻¹ s⁻¹, writing the number without its unit.

// worked examples, kon included
{"BINDER": "Vh2 combined with the VL of Ab15 (antibody, V domains shown, captured on anti-human IgG Fc tips) VH: EVQLVESGGGVVQPGRSLRLSCAASGFTFSSYAMHWVRQAPGKGLEWVAVISYDGSNKYYADSVKGRFTISRDNSKNTLYLQMNSLRAEDTAVYYCARGAGRGYTYGPDGFDIWGQGTMVTVSS VL: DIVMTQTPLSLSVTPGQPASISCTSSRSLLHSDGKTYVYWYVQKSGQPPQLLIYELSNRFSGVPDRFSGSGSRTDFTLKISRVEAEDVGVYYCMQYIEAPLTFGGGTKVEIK", "RECORDED ENDPOINT": "kon", "UNIT OF MEASUREMENT": "M⁻¹ s⁻¹", "QUANTITATIVE READOUT": 49700}
{"BINDER": "Vk7 combined with the VH of Ab15 (antibody, V domains shown, captured on anti-human IgG Fc tips) VH: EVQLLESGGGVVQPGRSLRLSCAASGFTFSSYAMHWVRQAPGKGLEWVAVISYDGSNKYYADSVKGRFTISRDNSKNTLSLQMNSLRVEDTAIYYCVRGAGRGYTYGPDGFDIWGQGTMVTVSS VL: DIVMTQSPLSLPVTPGEPASISCKSSQSLLHSDGKTYLYWYLQKPGQPPQLLIYELSNRFSGVPDRFSGSGSGTDFTLKISRVEAEDVGVYYCMQYIEAPLTFGGGTKVEIK", "RECORDED ENDPOINT": "kon", "UNIT OF MEASUREMENT": "M⁻¹ s⁻¹", "QUANTITATIVE READOUT": 57600}

Now look at this entry.
Ask: Data request, read-out kon, for Vk11 combined with the VH of Ab15 (antibody, V domains shown, captured on anti-human IgG Fc tips) VH: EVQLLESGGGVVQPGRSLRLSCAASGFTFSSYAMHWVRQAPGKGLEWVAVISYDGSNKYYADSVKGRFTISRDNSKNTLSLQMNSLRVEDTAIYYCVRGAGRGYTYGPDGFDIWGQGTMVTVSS VL: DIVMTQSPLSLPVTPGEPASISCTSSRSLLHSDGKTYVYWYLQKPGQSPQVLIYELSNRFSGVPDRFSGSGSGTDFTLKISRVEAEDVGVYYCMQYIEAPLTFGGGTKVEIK
Result: 42900
